The following sequences are listed with their measured shrunken log2 fold change values.
Tested on: Escherichia coli TOP10
Assay: shrunken log2 fold change of peptide-encoding DNA abundance (4.5 h post-induction vs induction); higher = less antimicrobial activity (less host growth inhibition)
Conditions: time post-induction: 4.5 h; library: site-saturation at positions 5, 18, 19, 20
// no unit string in output, number only

A selection of reference data follows.
Query: Please look at this sequence and report its shrunken log2 fold change: `RRIRLRPPRLPRPRPRPWMVPRP`
Result: -0.263

Query: Please look at this sequence and report its shrunken log2 fold change: `RRIRWRPPRLPRPRPRPMDQPRP`
Result: -0.131

Query: Please look at this sequence and report its shrunken log2 fold change: `RRIRMRPPRLPRPRPRPDNKPRP`
Result: -0.336

Query: Please look at this sequence and report its shrunken log2 fold change: `RRIRGRPPRLPRPRPRPQCHPRP`
Result: 0.48

Query: Please look at this sequence and report its shrunken log2 fold change: `RRIRRRPPRLPRPRPRPKKKPRP`
Result: -0.00706

Others:
Query: Please look at this sequence and report its shrunken log2 fold change: `RRIRGRPPRLPRPRPRPRYKPRP`
Result: 0.247

Query: Please look at this sequence and report its shrunken log2 fold change: `RRIRHRPPRLPRPRPRPDDFPRP`
Result: -0.198

Query: Please look at this sequence and report its shrunken log2 fold change: `RRIRTRPPRLPRPRPRPMEAPRP`
Result: -0.0389

Query: Please look at this sequence and report its shrunken log2 fold change: `RRIRSRPPRLPRPRPRPSWKPRP`
Result: -0.0985

----------
Test system: Escherichia coli TOP10
Experiment: shrunken log2 fold change of peptide-encoding DNA abundance (4.5 h post-induction vs induction); higher = less antimicrobial activity (less host growth inhibition)
Conditions: time post-induction: 4.5 h; library: site-saturation at positions 5, 18, 19, 20
Label scheme for shrunken log2 fold change: lower than -0.06 is no (0), -0.06 and above is yes (1).

Query: State whether the measured shrunken log2 fold change reaches -0.06, counting equality as reaching it, for `RRIRGRPPRLPRPRPRPGNWPRP`
Result: yes (1)

----------
System: Escherichia coli TOP10
Test: shrunken log2 fold change of peptide-encoding DNA abundance (4.5 h post-induction vs induction); higher = less antimicrobial activity (less host growth inhibition)
Details: time post-induction: 4.5 h; library: site-saturation at positions 5, 18, 19, 20
Label scheme for shrunken log2 fold change: lower than 0.1 is Criterion not met, 0.1 and above is Criterion met.

Query: State whether the measured shrunken log2 fold change reaches 0.1, counting equality as reaching it, for `RRIRLRPPRLPRPRPRPVMDPRP`
Result: Criterion not met

Query: State whether the measured shrunken log2 fold change reaches 0.1, counting equality as reaching it, for `RRIRMRPPRLPRPRPRPYRHPRP`
Result: Criterion not met

Query: State whether the measured shrunken log2 fold change reaches 0.1, counting equality as reaching it, for `RRIRKRPPRLPRPRPRPNKMPRP`
Result: Criterion not met

Query: State whether the measured shrunken log2 fold change reaches 0.1, counting equality as reaching it, for `RRIRNRPPRLPRPRPRPLCIPRP`
Result: Criterion not met

Query: State whether the measured shrunken log2 fold change reaches 0.1, counting equality as reaching it, for `RRIRGRPPRLPRPRPRPMMVPRP`
Result: Criterion met

Query: State whether the measured shrunken log2 fold change reaches 0.1, counting equality as reaching it, for `RRIRPRPPRLPRPRPRPVREPRP`
Result: Criterion met

We now examine a further sequence.
Query: State whether the measured shrunken log2 fold change reaches 0.1, counting equality as reaching it, for `RRIRDRPPRLPRPRPRPNELPRP`
Result: Criterion not met

----------
Test system: Escherichia coli TOP10
Assay: shrunken log2 fold change of peptide-encoding DNA abundance (4.5 h post-induction vs induction); higher = less antimicrobial activity (less host growth inhibition)
Settings: time post-induction: 4.5 h; library: site-saturation at positions 5, 18, 19, 20
Definition: the class of an entry is the range in bin 1: < -0.07; bin 2: ≥ -0.07 and < 0.2; bin 3: ≥ 0.2 that contains its shrunken log2 fold change.

Query: Sort `RRIRRRPPRLPRPRPRPLIDPRP` into one of the categories.
Result: bin 2

Others:
Query: Sort `RRIRFRPPRLPRPRPRPTLDPRP` into one of the categories.
Result: bin 2

Query: Sort `RRIRARPPRLPRPRPRPDLAPRP` into one of the categories.
Result: bin 3

----------
The following sequences are listed with their measured shrunken log2 fold change values.
Test system: Escherichia coli TOP10
Assay: shrunken log2 fold change of peptide-encoding DNA abundance (4.5 h post-induction vs induction); higher = less antimicrobial activity (less host growth inhibition)
Details: time post-induction: 4.5 h; library: site-saturation at positions 5, 18, 19, 20
// no unit string in output, number only

Query: Please look at this sequence and report its shrunken log2 fold change: `RRIRQRPPRLPRPRPRPPFIPRP`
Result: -0.0092

Others:
Query: Please look at this sequence and report its shrunken log2 fold change: `RRIRARPPRLPRPRPRPSTPPRP`
Result: 0.235

Query: Please look at this sequence and report its shrunken log2 fold change: `RRIRCRPPRLPRPRPRPWSMPRP`
Result: -0.308

Query: Please look at this sequence and report its shrunken log2 fold change: `RRIRTRPPRLPRPRPRPGQHPRP`
Result: 0.351

----------
Tested on: Escherichia coli TOP10
Test: shrunken log2 fold change of peptide-encoding DNA abundance (4.5 h post-induction vs induction); higher = less antimicrobial activity (less host growth inhibition)
Conditions: time post-induction: 4.5 h; library: site-saturation at positions 5, 18, 19, 20
Label scheme for shrunken log2 fold change: lower than 0.1 is F, 0.1 and above is T.

Query: State whether the measured shrunken log2 fold change reaches 0.1, counting equality as reaching it, for `RRIRVRPPRLPRPRPRPWPCPRP`
Result: F

Query: State whether the measured shrunken log2 fold change reaches 0.1, counting equality as reaching it, for `RRIRDRPPRLPRPRPRPYMDPRP`
Result: F

----------
System: Escherichia coli TOP10
Experiment: shrunken log2 fold change of peptide-encoding DNA abundance (4.5 h post-induction vs induction); higher = less antimicrobial activity (less host growth inhibition)
Settings: time post-induction: 4.5 h; library: site-saturation at positions 5, 18, 19, 20
Definition: the class of an entry is the range in lower range = under -0.2, middle range = from -0.2 up to 0.003, upper range = 0.003 and over that contains its shrunken log2 fold change.

// below: answered sequences
Query: Sort `RRIRGRPPRLPRPRPRPDYYPRP` into one of the categories.
Result: middle range

Query: Sort `RRIRHRPPRLPRPRPRPTTIPRP` into one of the categories.
Result: middle range

Query: Sort `RRIRVRPPRLPRPRPRPQAFPRP` into one of the categories.
Result: upper range

Query: Sort `RRIRHRPPRLPRPRPRPMWPPRP` into one of the categories.
Result: upper range

Others:
Query: Sort `RRIRVRPPRLPRPRPRPSNPPRP` into one of the categories.
Result: lower range

Query: Sort `RRIRPRPPRLPRPRPRPNVAPRP` into one of the categories.
Result: lower range

Query: Sort `RRIRFRPPRLPRPRPRPSMKPRP` into one of the categories.
Result: lower range

----------
System: Escherichia coli TOP10
Test: shrunken log2 fold change of peptide-encoding DNA abundance (4.5 h post-induction vs induction); higher = less antimicrobial activity (less host growth inhibition)
Conditions: time post-induction: 4.5 h; library: site-saturation at positions 5, 18, 19, 20
The following sequences are listed with their measured shrunken log2 fold change values.
// no unit string in output, number only

A selection of reference data follows.
Query: # return shrunken log2 fold change of `RRIRWRPPRLPRPRPRPGCIPRP` (system: Escherichia coli TOP10)
Result: 0.293

Query: # return shrunken log2 fold change of `RRIRMRPPRLPRPRPRPYMSPRP` (system: Escherichia coli TOP10)
Result: -0.00176

Others:
Query: # return shrunken log2 fold change of `RRIRLRPPRLPRPRPRPNQKPRP` (system: Escherichia coli TOP10)
Result: -0.0744

Query: # return shrunken log2 fold change of `RRIRWRPPRLPRPRPRPTQFPRP` (system: Escherichia coli TOP10)
Result: 0.0858

Query: # return shrunken log2 fold change of `RRIRGRPPRLPRPRPRPSESPRP` (system: Escherichia coli TOP10)
Result: 0.504

Query: # return shrunken log2 fold change of `RRIRRRPPRLPRPRPRPSHAPRP` (system: Escherichia coli TOP10)
Result: 0.232

Query: # return shrunken log2 fold change of `RRIRGRPPRLPRPRPRPGYTPRP` (system: Escherichia coli TOP10)
Result: -0.0605

Query: # return shrunken log2 fold change of `RRIRKRPPRLPRPRPRPILGPRP` (system: Escherichia coli TOP10)
Result: 0.00783

Query: # return shrunken log2 fold change of `RRIRNRPPRLPRPRPRPNKQPRP` (system: Escherichia coli TOP10)
Result: -0.0266

Query: # return shrunken log2 fold change of `RRIRFRPPRLPRPRPRPSEDPRP` (system: Escherichia coli TOP10)
Result: 0.00214

Query: # return shrunken log2 fold change of `RRIRVRPPRLPRPRPRPPMSPRP` (system: Escherichia coli TOP10)
Result: -0.249

Query: # return shrunken log2 fold change of `RRIRRRPPRLPRPRPRPHVMPRP` (system: Escherichia coli TOP10)
Result: 1.55

Query: # return shrunken log2 fold change of `RRIRYRPPRLPRPRPRPCLCPRP` (system: Escherichia coli TOP10)
Result: -0.453

Query: # return shrunken log2 fold change of `RRIRWRPPRLPRPRPRPGHIPRP` (system: Escherichia coli TOP10)
Result: -0.0732

Query: # return shrunken log2 fold change of `RRIRTRPPRLPRPRPRPGPKPRP` (system: Escherichia coli TOP10)
Result: 0.152

Query: # return shrunken log2 fold change of `RRIRCRPPRLPRPRPRPTCAPRP` (system: Escherichia coli TOP10)
Result: 0.178

Query: # return shrunken log2 fold change of `RRIRARPPRLPRPRPRPRAVPRP` (system: Escherichia coli TOP10)
Result: 1.11

Query: # return shrunken log2 fold change of `RRIRPRPPRLPRPRPRPYLHPRP` (system: Escherichia coli TOP10);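 further: peptides expressed intracellularly from a pBAD plasmid library in pooled LB shake-flask culture, induced with 0.3% L-arabinose, DNA abundance read by NGS, three biological replicates, DESeq2 with apeglm shrinkage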
Result: -0.471
